Hello, the source for this data is patent US7338799B2, in case you need it.

target: mCHT (Mus musculus, UniProt Q8BGY9, Q119K/Q86H); construct: expressed in transfected cells; host or cells: COS-7 (transient, pcDNA3); experiment: [3H]HC-3 binding in membrane fractions of mCHT transfected COS-7 cells; conditions: mCHT transfected COS-7 cell membrane; ACh in the presence of physostigmine; read-out: Ki in inhibiting [3H]HC-3 binding
quantity measured: pKi
Please express pKi as -log10 of the molar concentration.

Please report the recorded pKi for CC(=O)OCC[N+](C)(C)C [ACh, acetylcholine] .
3.36

----------
Target: mCHT (Mus musculus, UniProt Q8BGY9, Q119K/Q86H)
Construct: expressed in transfected cells; host or cells: COS-7 (transient, pcDNA3)
Sequence (Q8BGY9 with tags, fused parts or gaps Q86H/Q119K): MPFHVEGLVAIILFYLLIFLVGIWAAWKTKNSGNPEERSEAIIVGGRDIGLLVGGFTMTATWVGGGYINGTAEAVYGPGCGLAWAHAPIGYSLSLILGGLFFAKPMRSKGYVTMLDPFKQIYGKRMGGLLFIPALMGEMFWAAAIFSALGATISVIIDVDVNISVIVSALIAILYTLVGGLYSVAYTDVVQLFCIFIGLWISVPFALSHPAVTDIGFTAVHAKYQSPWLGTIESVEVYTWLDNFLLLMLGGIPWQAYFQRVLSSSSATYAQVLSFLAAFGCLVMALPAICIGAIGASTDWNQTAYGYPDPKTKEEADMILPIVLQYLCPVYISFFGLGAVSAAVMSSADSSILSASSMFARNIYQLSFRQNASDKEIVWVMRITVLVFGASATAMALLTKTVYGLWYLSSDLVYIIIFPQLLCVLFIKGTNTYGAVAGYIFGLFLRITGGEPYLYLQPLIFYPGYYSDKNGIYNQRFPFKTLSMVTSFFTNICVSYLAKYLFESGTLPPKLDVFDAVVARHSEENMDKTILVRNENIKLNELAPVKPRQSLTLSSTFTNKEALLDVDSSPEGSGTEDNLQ
Assay: choline uptake in resealed membrane vesicles from mCHT transfected COS-7 cells
Assay type: biochemical
Conditions: resealed membrane vesicles, mCHT
quantity measured: IC50 (nM)
Hi! Could you send only the number? It should be in nM, unit omitted.

Please report the recorded IC50 for C[N+](C)(C)CCO [choline] .
123
